- system_under_test: RORγt (Homo sapiens, UniProt P51449)
- Sequence (P51449 1-497 isoform P51449-2, species assumed): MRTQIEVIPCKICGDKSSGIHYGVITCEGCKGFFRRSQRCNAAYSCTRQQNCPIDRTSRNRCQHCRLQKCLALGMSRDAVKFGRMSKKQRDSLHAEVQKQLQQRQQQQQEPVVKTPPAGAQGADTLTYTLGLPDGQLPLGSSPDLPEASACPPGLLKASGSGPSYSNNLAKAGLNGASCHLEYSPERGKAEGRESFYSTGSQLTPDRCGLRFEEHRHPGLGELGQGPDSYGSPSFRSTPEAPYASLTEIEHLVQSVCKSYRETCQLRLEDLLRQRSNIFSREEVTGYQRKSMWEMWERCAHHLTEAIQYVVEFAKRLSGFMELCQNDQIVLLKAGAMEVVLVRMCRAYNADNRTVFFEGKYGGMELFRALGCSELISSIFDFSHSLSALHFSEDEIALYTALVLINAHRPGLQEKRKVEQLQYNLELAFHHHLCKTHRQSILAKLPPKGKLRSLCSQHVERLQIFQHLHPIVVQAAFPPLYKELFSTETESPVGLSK
- protocol_text: Jurkat reporter test (human IL-17 ROR response element luciferase, RORγt vector)
- Assay type: cell-based
- test_conditions: Jurkat, test compound 3 μM; Jurkat cells; read-out: luminescence level inhibitory rate at test compound 3 μM
property_name: inhibition at 3 µM (%)
Entry rule: numbers only, all in %.

Fill blank: measured inhibition at 3 µM of the compound COc1ccc2c(n1)CCN(C(=O)[C@H]1C[C@@H](CC(=O)OCc3oc(=O)oc3C)C1)[C@H]2C(=O)Nc1cc(F)c2c(c1)CCC2(C)C is ____.
102

Fill blank: measured inhibition at 3 µM of the compound CCOC(=O)C[C@H]1C[C@@H](C(=O)N2CCc3nc(OC)ccc3[C@@H]2C(=O)Nc2cc(F)c3c(c2)CCC3(C)C)C1 is ____.
103

Fill blank: measured inhibition at 3 µM of the compound COCC(C)(C)c1c(F)cc(NC(=O)[C@H]2c3ccc(OC)cc3CCN2C(=O)[C@H]2C[C@@H](CC(=O)O)C2)cc1F is ____.
99

Fill blank: measured inhibition at 3 µM of the compound COc1ccc2c(n1)CCN(C(=O)[C@H]1C[C@@H](C(=O)OC)C1)[C@H]2C(=O)Nc1cc(F)c2c(c1)CCC2(C)C is ____.
102

Fill blank: measured inhibition at 3 µM of the compound CCOCC(C)(C)c1c(F)cc(NC(=O)[C@H]2c3ccc(OCC)cc3CCN2C(=O)[C@H]2C[C@@H](CC(=O)O)C2)cc1F is ____.
97

Fill blank: measured inhibition at 3 µM of the compound COCc1ccc2c(c1)CCN(C(=O)[C@H]1C[C@@H](CC(=O)O)C1)[C@H]2C(=O)Nc1cc(F)c2c(c1)CCC2(C)C is ____.
99

###

- system_under_test: RORγt (Homo sapiens, UniProt P51449)
- protocol_text: Cofactor recruitment test (Alpha Screen, biotinylated SRC-1 peptide)
- Assay type: biochemical
- test_conditions: read-out: signal value inhibitory rate at test compound 1 μM
Criterion: inhibition at 1 µM meeting or surpassing 90%. Met: yes. Not met: no.

{"molecule": "COc1ccc2c(c1)CCN(C(=O)C1CC(CC(=O)O)C1)[C@H]2C(=O)Nc1cc(F)c([Si](C)(C)C)c(F)c1 (stereo partly drawn) [Example 4]", "category_label": "yes"}
{"molecule": "COc1ccc2c(n1)CCN(C(=O)[C@H]1C[C@@H]1CC(=O)O)[C@H]2C(=O)Nc1cc(F)c([Si](C)(C)C)c(F)c1 [Example 13]", "category_label": "no"}

Is inhibition at 1 µM for COc1ccc2c(n1)CCN(C(=O)[C@H]1C[C@H](CC(=O)O)C1)[C@H]2C(=O)Nc1cc(F)c([Si](C)(C)C)c(F)c1 [Example 28] at or above 90%?
no

###

- system_under_test: RORγt (Homo sapiens)
- protocol_text: Cofactor recruitment test (Alpha Screen, biotinylated SRC-1 peptide)
- Type: biochemical
- test_conditions: read-out: signal value inhibitory rate at test compound 1 μM
- Protocol: Cofactor Recruitment Test Cofactor recruitment test was performed by Alpha Screen (Histidine Detection Kit, PerkinElmer) method. First, a test compound was diluted with an assay buffer (50 mM Tris-HCl (pH 7.5), 50 mM KCl, 1 mM DTT, 0.1% BSA) and added to a 384 well plate by 5 μL. […] The mixture was stood in a dark place for 1 hr, and the signal value was measured by Envision (PerkinElmer).
Items are presented alongside their recorded inhibition at 1 µM.
Entry rule: numbers only, all in %.

Answered cases to consult:
{"compound": "COc1ccc2c(c1)CCN(C(=O)[C@H]1C[C@@H]1CC(=O)O)[C@H]2C(=O)Nc1cc(F)c([Si](C)(C)C)c(F)c1 [Example 29]", "property_name": "inhibition at 1 µM", "measure_unit": "%", "reported_measurement": 91}
{"compound": "COc1ccc2c(c1)CCN(C(=O)[C@@H]1C[C@H]1CC(=O)O)[C@H]2C(=O)Nc1cc(F)c([Si](C)(C)C)c(F)c1 [Example 30]", "property_name": "inhibition at 1 µM", "measure_unit": "%", "reported_measurement": 90}
{"compound": "CCOc1ccc2c(c1)CCN(C(=O)[C@H]1C[C@@H](C(=O)O)C1)[C@H]2C(=O)Nc1cc(F)c([Si](C)(C)C)c(F)c1 [Example 8]", "property_name": "inhibition at 1 µM", "measure_unit": "%", "reported_measurement": 90}
{"compound": "COc1ccc2c(c1)CCN(C(=O)[C@H]1C[C@@H](CC(=O)O)C1)[C@H]2C(=O)Nc1ccc([Si](C)(C)C)c(F)c1 [Example 33]", "property_name": "inhibition at 1 µM", "measure_unit": "%", "reported_measurement": 92}

Fill blank: measured inhibition at 1 µM of the compound COc1ccc2c(c1)CCN(C(=O)[C@H]1C[C@H](CC(=O)O)C1)[C@H]2C(=O)Nc1ccc([Si](C)(C)C)c(F)c1 [Example 34] is ____.
88

Fill blank: measured inhibition at 1 µM of the compound COc1ccc2c(c1)CCN(C(=O)[C@H]1C[C@H](CC(=O)O)C1)[C@H]2C(=O)Nc1cc(F)c([Si](C)(C)C)c(F)c1 [Example 27] is ____.
91

###

- system_under_test: UniProtKB P51449
- protocol_text: Cofactor recruitment test (Alpha Screen, biotinylated SRC-1 peptide)
- Assay type: biochemical
- test_conditions: test compound 1 μM; read-out: signal value inhibitory rate at test compound 1 μM
Criterion: inhibition at 1 µM meeting or surpassing 70%. Met: YES. Not met: NO.

These solved cases illustrate the format of a correct answer.
{"chemical_structure": "COCC(C)(C)c1c(F)cc(NC(=O)[C@H]2c3ccc(OC)cc3CCN2C(=O)[C@H]2C[C@@H](CC(=O)O)C2)cc1F", "category_label": "YES"}
{"chemical_structure": "CCOc1ccc2c(c1)CCN(C(=O)[C@H]1C[C@@H](CC(=O)O)C1)[C@H]2C(=O)Nc1cc(F)c(C(C)(C)COC)c(F)c1", "category_label": "YES"}
{"chemical_structure": "COCc1ccc2c(c1)CCN(C(=O)[C@H]1C[C@@H](CC(=O)O)C1)[C@H]2C(=O)Nc1cc(F)c2c(c1)CCC2(C)C", "category_label": "YES"}

Is inhibition at 1 µM for COC(=O)C[C@H]1C[C@@H](C(=O)N2CCc3nc(OC)ccc3[C@@H]2C(=O)Nc2cc(F)c3c(c2)CCC3(C)C)C1 at or above 70%?
NO

Is inhibition at 1 µM for CCOC(=O)C[C@H]1C[C@@H](C(=O)N2CCc3nc(OC)ccc3[C@@H]2C(=O)Nc2cc(F)c3c(c2)CCC3(C)C)C1 at or above 70%?
NO

###

Items are presented alongside their recorded inhibition at 1 µM.
- system_under_test: RORγt (Homo sapiens, UniProt P51449)
- protocol_text: Cofactor recruitment test (Alpha Screen, biotinylated SRC-1 peptide)
- Assay type: biochemical
- test_conditions: read-out: signal value inhibitory rate at test compound 1 μM

{"chemical_structure": "CCOc1ccc2c(c1)CCN(C(=O)[C@H]1C[C@H](C(=O)O)C1)[C@H]2C(=O)Nc1cc(F)c([Si](C)(C)C)c(F)c1", "system_under_test": "RORγt (Homo sapiens, UniProt P51449)", "inhibition at 1 µM": "88%"}
{"chemical_structure": "COc1ccc2c(c1)CCN(C(=O)[C@H]1C[C@H](C(=O)O)C1)[C@H]2C(=O)Nc1cc(F)c([Si](C)(C)C)c(F)c1", "system_under_test": "RORγt (Homo sapiens, UniProt P51449)", "inhibition at 1 µM": "91%"}

Now, please, on to the next compound.
Fill blank: measured inhibition at 1 µM of the compound COc1ccc2c(c1)CCN(C(=O)[C@H]1C[C@@H](C(=O)O)C1)[C@H]2C(=O)Nc1ccc([Si](C)(C)C)c(F)c1 is ____.
91%
